Assayed Target: Kv1.3 potassium channel (Homo sapiens)
Construct: expressed in transfected cells
Method: Kv1.3 potassium channel blocker activity, automated whole-cell patch clamp (Patchliner)
Assay type: cell-based
Conditions: CHO-K1 cells stably expressing Kv1.3; whole-cell current inhibition, Hill fit; read-out: Kv1.3 IC50
pIC50: −log10 of the molar value.
Outcome Measure: pIC50

Reference set, count: 3
1) Cn1cc(N2CC(c3c(O)ccc(Cl)c3Cl)CC2=O)ccc1=O (centres unmarked)    > 7.00
2) C[C@H](O)CCN1C[C@H](c2c(O)ccc(Cl)c2Cl)CC1=O (single isomer, unassigned; isomer 2)    > 7.00
3) C[C@@H](CO)N1C[C@H](c2c(O)ccc(Cl)c2Cl)CC1=O (single isomer, unassigned; isomer 2)    > 6.00

Provide each entry's pIC50 from the list below.
1. Nc1cc(N2C[C@H](c3c(O)ccc(Cl)c3Cl)CC2=O)ccn1
2. O=C1C[C@@H](c2c(O)ccc(Cl)c2Cl)CN1c1cn[nH]c1
3. Cc1cc(N2C[C@H](c3c(O)ccc(Cl)c3Cl)CC2=O)no1
4. C[C@@H]1[C@H](c2c(O)ccc(Cl)c2Cl)CC(=O)N1CCO
5. C[C@H]1[C@H](c2c(O)ccc(Cl)c2Cl)NC(=O)N1CCCO (relative stereo)

// result
1: > 7.00; 2: > 7.00; 3: > 5.00; 4: > 6.00; 5: > 7.00

* * *

Assayed Target: UniProt:Q12809
Sequence (Q12809 whole entry): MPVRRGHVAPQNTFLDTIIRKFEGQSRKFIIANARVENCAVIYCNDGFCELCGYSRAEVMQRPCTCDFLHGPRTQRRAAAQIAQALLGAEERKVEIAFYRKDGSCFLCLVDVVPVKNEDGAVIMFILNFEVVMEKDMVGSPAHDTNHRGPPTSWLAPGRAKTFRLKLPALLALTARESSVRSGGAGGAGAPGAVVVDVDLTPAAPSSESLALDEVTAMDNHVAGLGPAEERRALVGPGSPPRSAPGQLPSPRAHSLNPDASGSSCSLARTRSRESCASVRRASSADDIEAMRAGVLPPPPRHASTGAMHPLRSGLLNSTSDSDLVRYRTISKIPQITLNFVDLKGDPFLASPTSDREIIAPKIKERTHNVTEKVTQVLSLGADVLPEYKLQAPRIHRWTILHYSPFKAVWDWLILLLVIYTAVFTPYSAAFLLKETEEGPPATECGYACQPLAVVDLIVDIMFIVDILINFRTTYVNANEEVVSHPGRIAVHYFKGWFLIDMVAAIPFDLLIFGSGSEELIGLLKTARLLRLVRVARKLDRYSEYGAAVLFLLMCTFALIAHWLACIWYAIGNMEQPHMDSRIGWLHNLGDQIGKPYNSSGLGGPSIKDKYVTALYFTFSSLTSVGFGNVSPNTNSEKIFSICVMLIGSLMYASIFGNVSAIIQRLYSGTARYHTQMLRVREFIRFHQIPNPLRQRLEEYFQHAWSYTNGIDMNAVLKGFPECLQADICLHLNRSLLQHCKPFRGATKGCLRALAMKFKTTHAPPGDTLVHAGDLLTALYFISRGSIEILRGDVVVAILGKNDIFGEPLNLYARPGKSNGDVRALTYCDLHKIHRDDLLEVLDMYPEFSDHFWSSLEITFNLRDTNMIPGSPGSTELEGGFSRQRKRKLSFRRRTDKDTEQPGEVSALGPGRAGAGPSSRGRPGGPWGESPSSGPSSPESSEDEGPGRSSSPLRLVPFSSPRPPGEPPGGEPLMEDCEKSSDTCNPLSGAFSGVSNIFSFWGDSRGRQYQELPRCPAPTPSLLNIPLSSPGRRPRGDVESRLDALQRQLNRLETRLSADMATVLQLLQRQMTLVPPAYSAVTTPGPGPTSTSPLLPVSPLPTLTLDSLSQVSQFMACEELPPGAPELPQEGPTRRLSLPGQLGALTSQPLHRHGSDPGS
Method: cell-based
pIC50: −log10 of the molar value.
Outcome Measure: pIC50

1) C[C@H]1[C@H](c2c(O)ccc(Cl)c2Cl)CC(=O)N1CCCO [Compound 86]    < 4.52

Provide each entry's pIC50 from the list below.
1. NCCN1C[C@H](c2c(O)ccc(Cl)c2Cl)CC1=O [Compound 21]
2. O=C1O[C@H](c2c(O)ccc(Cl)c2Cl)CN1CCO (single isomer, unassigned; isomer 1) [Compound 93]
3. CN(C)C(=O)CCN1C[C@H](c2c(O)ccc(Cl)c2Cl)CC1=O [Compound 41]
4. O=C1CNCCN1CCN1C[C@H](c2c(O)ccc(Cl)c2Cl)CC1=O [Compound 75]
5. O=C1C[C@@H](c2c(O)ccc(Cl)c2Cl)CN1C1CN(CCO)C1 [Compound 16]
6. O=C1C[C@@H](c2c(O)ccc(Cl)c2Cl)CN1CC(CO)CO [Compound 42]

// result
< 4.00
< 4.00
< 4.00
< 4.52
< 5.00
< 4.52

Provide each entry's pIC50 from the list below.
1. O=C1C[C@@H](c2c(O)ccc(Cl)c2Cl)CN1CCC(F)(F)F [Compound 37]
2. Cn1cc(N2C[C@H](c3c(O)ccc(Cl)c3Cl)CC2=O)cn1 [Compound 56]
3. O=C1C[C@H](c2c(O)ccc(Cl)c2Cl)CN1[C@@H]1CCNC1 (single isomer, unassigned) [Compound 13]
4. O=C1C[C@@H](c2c(O)ccc(Cl)c2Cl)CN1[C@@H]1CCNC1 (single isomer, unassigned) [Compound 14]
5. O=C1C[C@H](c2c(O)ccc(Cl)c2Cl)CN1[C@H]1CCNC1 (single isomer, unassigned) [Compound 15]

// result
< 4.00
< 4.00
< 5.00
< 4.52
< 4.52

Provide each entry's pIC50 from the list below.
1. O=C1CC[C@H](c2c(O)ccc(Cl)c2Cl)CN1[C@H]1CCNC1 (single isomer, unassigned) [Compound 7]
2. C[C@H](O)CN1C[C@H](c2c(O)ccc(Cl)c2Cl)CC1=O [Compound 54]
3. CC1[C@H](c2c(O)ccc(Cl)c2Cl)CC(=O)N1C1CNC1 (stereo in doubt) [Compound 77]

// result
1: < 4.52; 2: < 4.52; 3: < 4.52

Provide each entry's pIC50 from the list below.
1. NCCCN1C[C@H](c2c(O)ccc(Cl)c2Cl)CC1=O [Compound 43]
2. Cn1cc(N2CC(c3c(O)ccc(Cl)c3Cl)CC2=O)ccc1=O (centres unmarked) [Compound 57]

// result
< 4.52
< 5.00

* * *

Kindly supply the reported IC50 values for the records listed here.
Assayed Target: Kv1.3 potassium channel (Homo sapiens)
Construct: expressed in transfected cells
Method: Kv1.3 potassium channel blocker activity, automated whole-cell patch clamp (Patchliner)
Type: cell-based
Conditions: CHO-K1 cells stably expressing Kv1.3; whole-cell current inhibition, Hill fit; read-out: Kv1.3 IC50
Procedure: CHO-K1 cells stably expressing Kv1.3 were grown in DMEM containing 10% heat-inactivated FBS, 1 mM sodium pyruvate, 2 mM L-glutamine and G418 (500 μg/ml). The currents were evoked by applying 100 ms depolarizing pulses from −90 mV (holding potential) to +40 mV were applied with 0.1 Hz frequency. […] 10-second breaks were used between pulse trains (see Table H below). Passive leak currents were subtracted online using a P/4 procedure (HEKA Elektronik Dr. Schulze GmbH). […]

Reference set, count: 3
1) Nc1ccc(N2C[C@H](c3c(O)ccc(Cl)c3Cl)CC2=O)cn1 [Compound 61]    < 100 nM
2) O=C1N[C@H](c2c(O)ccc(Cl)c2Cl)CCN1[C@H]1CCNC1 (single isomer, unassigned) [Compound 10]    < 1000 nM
3) COCCN1C[C@H](c2c(O)ccc(Cl)c2Cl)CC1=O [Compound 36]    < 100 nM

Provide each entry's IC50 from the list below.
1. C[C@@H]1[C@H](c2c(O)ccc(Cl)c2Cl)CC(=O)N1C1CNC1 [Compound 82]
2. O=C1CC[C@@H](c2c(O)ccc(Cl)c2Cl)CN1[C@H]1CCNC1 (single isomer, unassigned) [Compound 6]
3. O=C1N[C@@H](c2c(O)ccc(Cl)c2Cl)CN1CCCO [Compound 104]
4. CN(C)C(=O)CCN1C[C@H](c2c(O)ccc(Cl)c2Cl)CC1=O [Compound 41]

// result
1: < 100 nM; 2: < 1000 nM; 3: < 100 nM; 4: < 100 nM

* * *

Assayed Target: Kv1.3 potassium channel (Homo sapiens, UniProt P22001)
Construct: expressed in transfected cells
Sequence (P22001 whole entry): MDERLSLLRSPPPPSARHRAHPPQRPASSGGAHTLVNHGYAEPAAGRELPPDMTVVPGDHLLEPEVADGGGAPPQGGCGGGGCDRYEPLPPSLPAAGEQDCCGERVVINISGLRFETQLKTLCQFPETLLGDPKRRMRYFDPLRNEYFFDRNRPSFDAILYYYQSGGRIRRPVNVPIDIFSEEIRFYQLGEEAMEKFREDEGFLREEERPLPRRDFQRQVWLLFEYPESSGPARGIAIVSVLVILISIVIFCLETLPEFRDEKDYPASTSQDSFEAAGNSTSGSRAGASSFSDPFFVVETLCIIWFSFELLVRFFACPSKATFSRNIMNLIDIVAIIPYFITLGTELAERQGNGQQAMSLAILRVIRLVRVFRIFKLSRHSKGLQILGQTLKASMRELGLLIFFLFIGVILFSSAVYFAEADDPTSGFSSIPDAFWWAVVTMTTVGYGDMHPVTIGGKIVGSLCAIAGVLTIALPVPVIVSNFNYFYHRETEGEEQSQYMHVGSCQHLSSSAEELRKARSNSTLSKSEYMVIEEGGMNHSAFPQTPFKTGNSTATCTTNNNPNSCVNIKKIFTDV
Method: Kv1.3 potassium channel blocker activity, automated whole-cell patch clamp (Patchliner)
Assay type: cell-based
Conditions: CHO-K1 cells stably expressing Kv1.3; whole-cell current inhibition, Hill fit; read-out: Kv1.3 IC50
Outcome Measure: IC50

Provide each entry's IC50 from the list below.
1. C[C@H]1C(=O)N(C2CNC2)C[C@@H]1c1c(O)ccc(Cl)c1Cl (single isomer, unassigned; isomer 3) [Compound 89]
2. O=C1C[C@@H](c2c(O)ccc(Cl)c2Cl)CN1[C@H]1CCNC1 (single isomer, unassigned) [Compound 12]
3. CC1[C@H](c2c(O)ccc(Cl)c2Cl)CC(=O)N1C1CNC1 (stereo in doubt) [Compound 77]
4. O=C1C[C@@H](c2c(O)ccc(Cl)c2Cl)CN1CC1(CO)CNC1 [Compound 46]
5. O=C1C[C@@H](c2c(O)ccc(Cl)c2Cl)CN1CCC(F)(F)F [Compound 37]
6. NCC(O)CN1C[C@H](c2c(O)ccc(Cl)c2Cl)CC1=O (single isomer, unassigned; isomer 2) [Compound 52]

// result
1. < 10 µM
2. < 1 µM
3. < 0.1 µM
4. < 0.1 µM
5. < 1 µM
6. < 0.1 µM

Provide each entry's IC50 from the list below.
1. NCCN1C[C@H](c2c(O)ccc(Cl)c2Cl)CC1=O [Compound 21]
2. N[C@@H](CO)CN1C[C@H](c2c(O)ccc(Cl)c2Cl)CC1=O [Compound 49]
3. CC(O)(CO)CN1C[C@H](c2c(O)ccc(Cl)c2Cl)CC1=O (some centres unmarked) [Compound 55]
4. O=C1C[C@@H](c2c(O)ccc(Cl)c2Cl)CN1[C@H]1CCOC1 (single isomer, unassigned; isomer 1) [Compound 27]

// result
< 0.1 µM
< 0.1 µM
< 1 µM
< 1 µM

Provide each entry's IC50 from the list below.
1. O=C1C[C@@H](c2c(O)ccc(Cl)c2Cl)CN1CC(CO)CO [Compound 42]
2. O=C1C[C@@H](c2c(O)ccc(Cl)c2Cl)CN1C[C@H]1C[C@@H](O)C1 (single isomer, unassigned; isomer 2) [Compound 32]
3. O=C1C[C@@H](c2c(O)ccc(Cl)c2Cl)CN1c1cnn(CCO)c1 [Compound 69]
4. O=C1O[C@@H](c2c(O)ccc(Cl)c2Cl)CN1CCO (single isomer, unassigned; isomer 2) [Compound 94]
5. Cn1ccc(N2C[C@H](c3c(O)ccc(Cl)c3Cl)CC2=O)cc1=O [Compound 68]

// result
1: < 0.1 µM; 2: < 0.1 µM; 3: < 0.1 µM; 4: < 1 µM; 5: < 1 µM

Provide each entry's IC50 from the list below.
1. C[C@H]1C(=O)N(C2CNC2)C[C@H]1c1c(O)ccc(Cl)c1Cl (single isomer, unassigned; isomer 1) [Compound 87]
2. O=C1CC(c2c(O)ccc(Cl)c2Cl)CCN1C1CCNC1 (single isomer, unassigned) [Compound 1]
3. O=C1C[C@@H](c2c(O)ccc(Cl)c2Cl)CN1C(CO)CO [Compound 18]

// result
1. < 1 µM
2. < 0.1 µM
3. < 1 µM
